- Test system: IGROV1 ovarian
- testSummary: NCI tumour cell line growth inhibition, 48 h
measuredQuantity: TGI

Example results:
- compound: "CS(=O)(=O)CCNCc1ccc(-c2ccc3ncnc(Nc4ccc(OCc5cccc(C(F)(F)F)c5)cc4)c3c2)o1"
  TGI: "> 17.5 µM"
- compound: "NC1C/C(=N\\O)c2c(I)sc(I)c21 (stereo not given)"
  TGI: "30.8 µM"
- compound: "Cc1c(-c2cc3n(n2)C(c2cccs2)C(C#N)=C(c2ccccc2)N3)c(=O)n(-c2ccccc2)n1C (stereo not given)"
  TGI: "> 100 µM"

// input: 2 compounds below; output: TGI for each
1. NNC(=O)CNC(=O)CSc1nnc(COc2ccc(Cl)cc2)n1-c1ccccc1
2. CCCN1C(=O)CCC2=C1CCc1c2ccc(Cl)c1Cl

### Response
["> 100 µM", "> 100 µM"]
